The following compounds are listed with their measured strain resistant or sensitive to the drug values.
# Test system: M. tuberculosis MDR strain Praha 4
# protocol: microbe, parasite or virus in culture
# Assay type: cell-based
recorded.endpoint: strain resistant or sensitive to the drug

compound | value.observed
CC1COc2c(N3CCN(C)CC3)c(F)cc3c(=O)c(C(=O)O)cn1c23 (stereo not shown) [Ofloxacin] | >22.2 R
NCC[C@H](O)C(=O)N[C@@H]1C[C@H](N)[C@@H](O[C@H]2O[C@H](CN)[C@@H](O)[C@H](O)[C@H]2O)[C@H](O)[C@H]1O[C@H]1O[C@H](CO)[C@@H](O)[C@H](N)[C@H]1O [Amikacin] | 0.85 C
[H]/N=C(/N)N[C@H]1[C@H](O)[C@@H](O)[C@H](O[C@@H]2O[C@@H](C)[C@](O)(C=O)[C@H]2O[C@@H]2O[C@@H](CO)[C@H](O)[C@@H](O)[C@@H]2NC)[C@@H](N/C(N)=N\[H])[C@@H]1O [Streptomycin] | >27.5 R
CO[C@H]1/C=C/O[C@@]2(C)Oc3c(C)c(O)c4c(O)c(c(/C=N/N5CCN(C)CC5)c(O)c4c3C2=O)NC(=O)/C(C)=C\C=C\[C@H](C)[C@H](O)[C@@H](C)[C@@H](O)[C@@H](C)[C@H](OC(C)=O)[C@@H]1C [Rifampicin] | >9.7 R

====

# System: M. tuberculosis MDR strain 234/2005
# protocol: microbe, parasite or virus in culture
# Assay type: cell-based
Measured strain resistant or sensitive to the drug values are reported for all entries that follow.
recorded.endpoint: strain resistant or sensitive to the drug

molecule | value.observed
NCC[C@H](O)C(=O)N[C@@H]1C[C@H](N)[C@@H](O[C@H]2O[C@H](CN)[C@@H](O)[C@H](O)[C@H]2O)[C@H](O)[C@H]1O[C@H]1O[C@H](CO)[C@@H](O)[C@H](N)[C@H]1O [Amikacin] | 0.43 C
CO[C@H]1/C=C/O[C@@]2(C)Oc3c(C)c(O)c4c(O)c(c(/C=N/N5CCN(C)CC5)c(O)c4c3C2=O)NC(=O)/C(C)=C\C=C\[C@H](C)[C@H](O)[C@@H](C)[C@@H](O)[C@@H](C)[C@H](OC(C)=O)[C@@H]1C [Rifampicin] | >9.7 R
CC1COc2c(N3CCN(C)CC3)c(F)cc3c(=O)c(C(=O)O)cn1c23 (stereo not shown) [Ofloxacin] | 0.69 C
CC(C)/N=c1\cc2n(-c3ccc(Cl)cc3)c3ccccc3nc-2cc1Nc1ccc(Cl)cc1 [Clofazimin] | 0.06 C
